Reference source: paper PMC8238520

- measured.target: T1, 14-3-3ζ dimer (UniProt P63104 1-245)
- T1 chain: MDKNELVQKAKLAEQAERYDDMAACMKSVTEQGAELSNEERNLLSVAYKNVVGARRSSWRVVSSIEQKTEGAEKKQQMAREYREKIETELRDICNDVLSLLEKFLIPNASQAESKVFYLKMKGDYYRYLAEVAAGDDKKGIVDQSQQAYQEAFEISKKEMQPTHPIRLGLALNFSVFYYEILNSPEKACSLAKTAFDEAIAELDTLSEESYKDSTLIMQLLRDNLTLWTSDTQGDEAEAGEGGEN
- test.summary: FP
Where no end group is shown, it is not given here. [ ]: non-standard residue; d: D form. pS = N[C@@H](COP(=O)(O)O)C(=O)O
outcome.measure: Kd (nM)

A. DRSK[pS]APT[pS]PCDQEIKELENNIRKAL[pS]FDNR (also: FAM label (end not given here)) [FAM-tagged PKCε pSer346/pSer350/pSer368 phosphopeptide]
B. DRSK[pS]APTSPCDQEIKELENNIRKAL[pS]FDNR (also: FAM label (end not given here)) [FAM-tagged PKCε pSer346/pSer368 phosphopeptide]
Could you kindly indicate whether A or B has the higher Kd value? The response must carry the label of the picked entry. A
